assay: Measurement of pKa (perchloric acid titration, absorption spectrum); format: physicochemical; conditions: in acetonitrile, 70% perchloric acid (acetic acid as solvent) added dropwise; ratio of triazine-free compound and proton adduct from absorbance at λmax
outcomeMeasure: pKa

molecule	pKa
CCCCCCOc1ccc(-c2nc(-c3ccccc3)nc(-c3ccccc3)n2)c(O)c1	-4.9
CCCCCCCCOc1ccc(-c2nc(-c3ccc(C)cc3C)nc(-c3ccc(C)cc3C)n2)c(O)c1	-4.4
